// data source = paper PMC4965013

System: P. falciparum 3D7 trophozoites
assay remarks: Metabolomic fingerprint profiling LC-MS
Format: cell-based, Plasmodium falciparum
condition summary: metabolite level change after treatment
Answer each item with its documented Pyrophosphate.
Numbers only.

- compound: "CCN1CCN(Cc2ccc(NC(=O)c3cc4ccc5cccnc5c4[nH]3)cc2)CC1"
  reported metric: "Pyrophosphate"
  value observed: -0.5624
- compound: "COc1ccc2c(=O)cc(C(Cl)(Cl)Cl)oc2c1"
  reported metric: "Pyrophosphate"
  value observed: -2.687
- compound: "CCN(CC)CCNc1ncnc2c1[nH]c1ccc(Cl)cc12"
  reported metric: "Pyrophosphate"
  value observed: -0.1133
- compound: "COc1ccc(-c2nc(NC(=O)CS(=O)(=O)c3ccc(F)cc3)sc2C)cc1"
  reported metric: "Pyrophosphate"
  value observed: -0.0001746
- compound: "O=C(CSc1nccn2nc(-c3ccccc3)cc12)Nc1cc(C(F)(F)F)ccc1Cl"
  reported metric: "Pyrophosphate"
  value observed: -0.1573

Go through the items and report each one's Pyrophosphate.
1. COc1ccc(C=C2SC(=N)N(c3ccccc3OC)C2=O)cc1
2. COc1ccc(NC(=O)C2c3ccccc3C(=O)N(CC(C)C)C2c2cccs2)cc1 (centres unmarked)
3. O=[N+]([O-])c1ccc(C=NNc2nc3ccccc3[nH]2)cc1
4. COc1ccc(NC(=O)C2c3ccccc3C(=O)N(CC(C)C)C2c2cccs2)cc1Cl (centres unmarked)
5. CN1CCN(c2ccc(Nc3c4ccccc4nc4ccccc34)cc2)CC1
6. O=C1C(O)=C([C@H]2CC[C@H](c3ccc(Cl)cc3)CC2)C(=O)c2ccccc21 [Atovaquone, reference compound]

Response:
1: 0.16; 2: -1.578; 3: 0.2379; 4: -1.141; 5: -0.313; 6: -0.1571

Report Pyrophosphate for each item below.
1. Oc1ccccc1CNCC12CC3CC(CC(C3)C1)C2
2. CC(C)(C)c1ccc(O)c(CNC2CCCCC2)c1
3. Cc1ccc(Nc2nc(-c3ccccn3)cs2)cc1

Response:
1. 0.1188
2. 0.2456
3. 0.1304

###

Kindly supply the reported uridine values for the records listed here.
Tested on: P. falciparum 3D7 trophozoites
assay remarks: Metabolomic fingerprint profiling LC-MS
Assay type: cell-based, Plasmodium falciparum
condition summary: metabolite uridine; S2 Table Metabolomics, change in metabolite level after compound treatment
One number for each entry.

Illustrative cases are given below, each with its answer.
- compound: "Cc1ccc(-c2cc3nc4c(c(O)n3n2)CCCC4)cc1 [MMV006937]"
  uridine: -0.8059
- compound: "O=C(NCC(c1ccsc1)N1CCCCCC1)c1ccc(C(F)(F)F)cc1 (stereo not shown) [MMV396672]"
  uridine: -0.8839
- compound: "CCOc1cc2c(cc1OCC)C(c1cc(OC)c(O)cc1Cl)NCC2 (stereo not shown) [MMV008956]"
  uridine: 0.5193
- compound: "Cc1ccc(-c2cc3c(SCC(=O)Nc4cc(C(F)(F)F)ccc4Cl)nccn3n2)cc1 [MMV396680]"
  uridine: -0.7719
- compound: "COc1ccc(Br)cc1C1Nc2ccc3ccccc3c2C2=C1C(=O)CC(c1ccccc1)C2 (stereo not shown) [MMV020885]"
  uridine: 0.101

Give uridine for each of the items listed below.
1. COc1ccc(NC(=O)C2c3ccccc3C(=O)N(CC(C)C)C2c2cccs2)cc1 (stereo not shown) [MMV000662]
2. Cc1cc(C)cc(Nc2cc(C)nc3nc(C(F)(F)F)nn23)c1 [MMV011259]
3. COc1ccc(C(=O)Nc2nonc2-c2ccc(OC)c(OC)c2)cc1Cl [MMV011567]
4. Fc1ccc2[nH]c3c(NCCCN4CCOCC4)ncnc3c2c1 [MMV019871]

Response:
1: 1.71; 2: -1.619; 3: 0.07808; 4: 0.09395

Batch: uridine for all items listed.
1. COc1cccc(NC(=O)[C@H](C(C)C)n2c(=O)[nH]c3ccccc3c2=O)c1 [MMV665878]
2. CCOC(=O)c1c(C)n(-c2ccc(Cl)cc2)c2ccc(OC(=O)C=Cc3ccccc3)cc12 [MMV666600]

Response:
1. 0.5173
2. 0.1838
